method summary: Cmax in rat
Assay type: ADME, organism-based
measurement parameters: in vivo
reported property: Cmax (ng/mL)
Unit ng/mL implied. Number only.

Per the records, this compound ( CC[C@H](COc1ccc(C(F)(F)F)cc1)CSc1ccc(OCC(=O)O)c(C)c1 ) has Cmax equal to 8870

----------
method summary: Tmax in rat
Format: ADME, organism-based
measurement parameters: in vivo
reported property: Tmax (min)
Unit min implied. Number only.

Per the records, this compound ( CC[C@H](COc1ccc(C(F)(F)F)cc1)CSc1ccc(OCC(=O)O)c(C)c1 ) has Tmax equal to 30

----------
method summary: Half life in rat
Assay type: ADME, organism-based
measurement parameters: in vivo
reported property: half-life (h)
Unit h implied. Number only.

Per the records, this compound ( CC[C@H](COc1ccc(C(F)(F)F)cc1)CSc1ccc(OCC(=O)O)c(C)c1 ) has half-life equal to 8.2

----------
method summary: AUC in rat
Assay type: ADME, organism-based
measurement parameters: plasma
reported property: AUC (ng·h/mL)
Unit ng·h/mL implied. Number only.

Per the records, this molecule ( CC[C@H](COc1ccc(C(F)(F)F)cc1)CSc1ccc(OCC(=O)O)c(C)c1 ) has AUC equal to 13600

----------
assayed target: Peroxisome proliferator-activated receptor delta (Homo sapiens, UniProt Q03181)
Sequence (Q03181 whole entry): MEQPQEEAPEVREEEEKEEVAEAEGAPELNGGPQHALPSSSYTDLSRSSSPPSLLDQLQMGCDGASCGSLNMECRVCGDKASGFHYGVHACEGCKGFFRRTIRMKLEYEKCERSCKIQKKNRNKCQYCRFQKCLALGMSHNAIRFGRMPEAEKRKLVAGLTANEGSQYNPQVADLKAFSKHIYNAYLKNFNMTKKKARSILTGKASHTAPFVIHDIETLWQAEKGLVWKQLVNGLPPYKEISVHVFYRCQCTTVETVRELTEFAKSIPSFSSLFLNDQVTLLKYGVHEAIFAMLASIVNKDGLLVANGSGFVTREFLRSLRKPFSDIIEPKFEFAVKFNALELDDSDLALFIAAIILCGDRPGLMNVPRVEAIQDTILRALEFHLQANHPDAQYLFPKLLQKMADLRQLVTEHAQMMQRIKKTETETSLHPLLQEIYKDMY
method summary: Agonist activity at human PPARdelta receptor by cell based transactivation assay
pEC50: −log10 of the molar value.
reported property: pEC50

Answered cases to consult:
1. CCO[C@H](COc1ccc(C(F)(F)F)cc1)CSc1ccc(OCC(=O)O)c(C)c1 : 8.72
2. CSCOC(CCc1ccc(C(F)(F)F)cc1)CSc1ccc(OCC(=O)O)c(C)c1 (configuration not stated) : 7.82
3. C=CCOC(COc1ccc(C(F)(F)F)cc1)CSc1ccc(OCC(=O)O)c(C)c1 (configuration not stated) : 8.41

(P) CC[C@H](COc1ccc(C(F)(F)F)cc1)CSc1ccc(OCC(=O)O)c(C)c1
(Q) Cc1cc(SCC(C)COc2ccc(C(F)(F)F)cc2)ccc1OCC(=O)O (configuration not stated)
(R) CCC(COc1ccc(C(F)(F)F)cc1)CSc1ccc(OCC(=O)O)c(C)c1 (configuration not stated)
Query string: Task for the reader: rank each entry by its pEC50, from the minimum upward. Give the labels in the order requested.
Result string: Q, R, P

(I) CCO[C@@H](COc1ccc(C(F)(F)F)cc1)CSc1ccc(OCC(=O)O)c(C)c1
(II) CCOC(COc1ccc(C(F)(F)F)cc1)CSc1ccc(OCC(=O)O)c(C)c1 (configuration not stated)
Query string: Which has the higher pEC50, I or II ? Please respond with the label that marks your chosen entry.
Result string: II

(A) CCCCOC(COc1ccc(C(F)(F)F)cc1)CSc1ccc(OCC(=O)O)c(C)c1 (configuration not stated)
(B) COC(COc1ccc(C(F)(F)F)cc1)CSc1ccc(OCC(=O)O)c(C)c1 (configuration not stated)
Query string: Which has the higher pEC50, A or B ? Please respond with the label that marks your chosen entry.
Result string: A
